These measurements were taken from PubChem BioAssay (NCI).

test system: EKVX NSCLC; experiment: NCI-60 one-dose screen, 48 h; details: 10 µM unless noted
This is part of a sample that, as a whole, favours compounds with a hit. Of some 83,000 tested, about 20% had one in any assay. The source made the active and inactive calls. The calls were made as follows: active = growth percent below 10; inactive = the rest.
Classes used: 1.0 = active, 0.0 = inactive

compound: N#Cc1ccc(/C=C/c2cn(-c3ccccc3)nc2-c2cccc([N+](=O)[O-])c2)cc1
label.class: 0.0
--
compound: CN1CCN(c2ccc(NC3=CC(=O)c4ncncc4C3=O)cc2)CC1
label.class: 1.0
--
compound: C#Cc1cccc(NC(=O)C2CCCCN2C(=O)CCl)c1 (stereo not given)
label.class: 0.0
--
compound: c1ccc(Cn2cc3c(c2-c2ccccc2)CCc2cnoc2-3)cc1
label.class: 0.0
--
compound: C[C@H]1[C@H](C)CC[C@]2(C(=O)NCCNCCN)CC[C@]3(C)C(=CC[C@@H]4[C@@]5(C)CCC(=O)C(C)(C)[C@@H]5CC[C@]43C)[C@H]12
label.class: 0.0
--
compound: CCCn1c(=S)sc2c(NNC(C)=O)nc(C)nc21
label.class: 0.0
--
compound: N#Cc1c(-c2ccc(Cl)cc2)nc(NN=Cc2ccc[nH]2)nc1N1CCOCC1
label.class: 0.0
--
compound: O=CCCCOCc1ccccc1
label.class: 0.0
--
compound: Cc1cc(N2CCN(CC(=O)Nc3ccc4c(ccn4Cc4ccccc4)c3)CC2)nc(N2CCOCC2)n1
label.class: 0.0
--
compound: O=C(c1c[nH]c2ccccc12)c1n[nH]c(=S)n1-c1ccc([N+](=O)[O-])cc1
label.class: 0.0
--
compound: O=S(=O)(Nc1ccc2ccccc2c1)c1ccc(-c2cnc(C3CC3)o2)cc1
label.class: 0.0
--
compound: COc1ccc2cc(-c3nc4ccc(C)cn4c3NCc3ccco3)c(=O)[nH]c2c1
label.class: 0.0
--
compound: COc1ccc(/C=C(/C(=O)N2CCNCC2)c2cc(OC)c(OC)c(OC)c2)cc1O
label.class: 0.0
--
compound: N[C@@H]1CCC[C@H]1NCCCCN1C(=O)c2cccc3cc([N+](=O)[O-])cc(c23)C1=O
label.class: 0.0
--
compound: O=C(/C=C/c1ccccc1)N(C1CCCCC1)C1CCCCC1
label.class: 0.0
--
compound: COCCn1cc(-c2nc(-c3cc4cccnc4n3C)cs2)c2ccccc21
label.class: 0.0
--
compound: CC1SC(c2ccccc2O)N(NC(=O)CCC(=O)c2nc3ncccc3[nH]2)C1=O (stereo not given)
label.class: 0.0
--
compound: CC/C(=C(/c1ccc(O)cc1)c1ccc(OCCN2CCCCC2)cc1)c1ccc(OC)cc1
label.class: 0.0
--
compound: COc1cc2c(cc1OCCCN1CCN(C(=S)SCCC(C#N)(c3ccccc3)c3ccccc3)CC1)N=C[C@@H]1CCCN1C2=O
label.class: 1.0
--
compound: CN1CCN(Cc2ccc(NC(=O)c3cncc(C#Cc4cnc(N)cc4C#N)c3)cc2C(F)(F)F)CC1
label.class: 0.0
